- Test system: C57BL/6 mice given hANGPTL4-mFc
- Type: in vivo
- ASSAY CONTEXT: antibody 5 mg/kg s.c.; 24 h later hANGPTL4-mFc 25 μg/mouse i.v.; bled 30 min after; mean±SEM
MEASURED QUANTITY: NEFA-C (mg/dL)
The answer is to be given in mg/dL; state only the numeric part.

>  <MOLECULE>
H1H257P: anti-hANGPTL4 antibody, HCVR/LCVR SEQ ID NOs 18/20 (antibody, V domains shown) VH: EVQLVESGGGLVQPGGSLRLSCAASGFTFSSYDMHWVRQVAGKGLEWVSAIGTAGDTYYPVSVKGRFTISRENAKNSLYLHMNSLRAGDTAVYFCARGDSRNYYVGDYFDYWGQGTLVTVSS VL: DIQMTQSPSTLSASVGDRVTITCRASQSISRWLAWYQQKPGKAPKVLIYQASNLESGVPSRFSGSGSGTEFTLTISSLQPDDFATYYCQQYDSYSRAFGRGTKVEIK

>  <NEFA-C, mg/dL>
0.97

$$$$

Please find the next molecule below.
Q) # lookup: NEFA-C of H1H236N2: anti-hANGPTL4 antibody, HCVR/LCVR SEQ ID NOs 458/394 (antibody, V domains shown) VH: EVQLVESGGGLVQPGRSLRLSCAASGFTFDDYAMHWVRQAPGKGLEWVSGISWNSGSIVYADSVKGRFTISRDNAKNSLYLQMNSLISEDTALYYCAKDESSSSGNWFDPWGQGTLVTVSS VL: EVVMTQSPATLSVSPGERATLSCRASQSVSSNLAWYQQKPGQAPRLLIYGASTRATGIPARFSGSGSGTEFTLTISSLQSEDFAVYYCQEYNNWITFGQGTRLEIK
A) 1.11
